- test system: GSK3β (Homo sapiens (Human))
- Sequence (P49841 whole entry): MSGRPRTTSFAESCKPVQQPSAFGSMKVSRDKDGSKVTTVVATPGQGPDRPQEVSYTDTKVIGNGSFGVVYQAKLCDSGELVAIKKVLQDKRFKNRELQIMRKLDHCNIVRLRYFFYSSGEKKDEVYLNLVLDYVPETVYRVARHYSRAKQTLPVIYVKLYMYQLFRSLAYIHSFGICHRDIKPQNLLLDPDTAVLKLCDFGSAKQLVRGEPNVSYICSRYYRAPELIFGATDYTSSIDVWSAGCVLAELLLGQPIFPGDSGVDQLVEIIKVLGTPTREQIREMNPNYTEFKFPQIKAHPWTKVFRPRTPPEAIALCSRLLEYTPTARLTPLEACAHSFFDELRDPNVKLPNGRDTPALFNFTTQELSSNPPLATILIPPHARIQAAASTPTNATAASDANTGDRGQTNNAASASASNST
- method summary: biochemical
metric: IC50

Recorded IC50, per entry:
compound=Cc1[nH]nc2c1[C@@H](c1ccccc1C#N)C1=C(CC(C)(C)CC1=O)N2 value_measured="101 to 1000 nM"
compound="Cc1[nH]nc2c1C(c1ccccn1)C1=C(CC(C)(C)CC1=O)N2 (stereo not shown)" value_measured="101 to 1000 nM"
compound="Cc1[nH]nc2c1C(c1cccc(F)c1)C1=C(CC(C)(C)CC1=O)N2 (stereo not shown)" value_measured="101 to 1000 nM"
compound="CSc1ccccc1C1C2=C(CC(C)(C)CC2=O)Nc2n[nH]c(C)c21 (stereo not shown)" value_measured="< 100 nM"

stdin: Fill in the blank: the reported IC50 of Cc1ccc(C2C3=C(CC(C)(C)CC3=O)Nc3n[nH]c(C)c32)cc1 (stereo not shown) is ____.
stdout: 1000 to 5000 nM

stdin: Okay, and Cc1[nH]nc2c1C(c1ccc(F)cc1Cl)C1=C(CC(C)(C)CC1=O)N2 (stereo not shown) ?
stdout: 1000 to 5000 nM

stdin: Same thing, different compound: CC1(C)CC(=O)C2=C(C1)Nc1n[nH]c(C(F)(F)F)c1C2(C)c1ccccc1 (racemic)
stdout: < 100 nM
